What pIC50 was measured for each of the following?
Biological target: recombinant human DPPIV (rhDPPIV) (Homo sapiens, UniProt P27487)
Construct: purchased R&S system (so in the source)
Sequence (P27487 whole entry): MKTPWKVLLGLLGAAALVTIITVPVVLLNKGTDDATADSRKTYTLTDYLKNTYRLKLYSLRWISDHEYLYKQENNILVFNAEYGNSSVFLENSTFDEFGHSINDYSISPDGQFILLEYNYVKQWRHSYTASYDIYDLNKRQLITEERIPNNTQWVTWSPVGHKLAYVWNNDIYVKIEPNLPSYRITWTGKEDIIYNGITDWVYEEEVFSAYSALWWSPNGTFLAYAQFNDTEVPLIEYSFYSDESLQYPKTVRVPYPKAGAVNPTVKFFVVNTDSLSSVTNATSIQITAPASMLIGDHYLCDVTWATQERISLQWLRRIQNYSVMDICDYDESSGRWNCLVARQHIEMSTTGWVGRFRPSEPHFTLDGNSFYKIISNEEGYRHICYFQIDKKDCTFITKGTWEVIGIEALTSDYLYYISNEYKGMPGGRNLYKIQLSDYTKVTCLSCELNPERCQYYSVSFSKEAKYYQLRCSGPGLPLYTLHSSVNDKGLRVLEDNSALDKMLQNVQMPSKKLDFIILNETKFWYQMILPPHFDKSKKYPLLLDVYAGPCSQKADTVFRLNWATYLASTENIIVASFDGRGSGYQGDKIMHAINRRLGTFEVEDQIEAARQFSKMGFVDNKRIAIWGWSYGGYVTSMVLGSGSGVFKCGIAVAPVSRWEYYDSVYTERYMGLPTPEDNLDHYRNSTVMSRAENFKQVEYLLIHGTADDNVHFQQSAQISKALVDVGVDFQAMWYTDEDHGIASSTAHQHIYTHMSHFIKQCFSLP
Test: DPPIV enzymatic activity assay, H-Gly-Pro-pNA
Type: biochemical
Settings: Table 3A
pIC50: −log10 of the molar value.

Reported pIC50, compound N#C[C@@H]1CC(F)(F)CN1C(=O)CNC(=O)c1ccncc1NC(=O)COc1ccc(Cl)c(F)c1 : ____ 5.00 to 6.00

What value of pIC50 has been reported for the following compound? COc1ccc(C(=O)Nc2cnccc2C(=O)NCC(=O)N2CC(F)(F)C[C@H]2C#N)cc1 5.00 to 6.00

Dear colleague, I am looking for the recorded pIC50 of the following compound: N#C[C@@H]1CC(F)(F)CN1C(=O)CNC(=O)c1ccncc1NC(=O)Cc1ccccc1 < 5.00

Could you tell me which pIC50 is on file for N#C[C@@H]1CC(F)(F)CN1C(=O)CNC(=O)c1ccncc1CCc1ccc(F)cc1 ? < 5.00

What does the data say about its pIC50? Entry: N#C[C@@H]1CC(F)(F)CN1C(=O)CNC(=O)c1ccncc1/C=C/c1ccc(Cl)cc1 < 5.00

====

Field: IC50. Provide a value for each of the molecules that follow.
Target: recombinant human DPP9 (rhDPP9) (Homo sapiens, UniProt Q86TI2)
Construct: purchased R&S system / R&D systems (both sic) 5419-SE
Sequence (Q86TI2 whole entry): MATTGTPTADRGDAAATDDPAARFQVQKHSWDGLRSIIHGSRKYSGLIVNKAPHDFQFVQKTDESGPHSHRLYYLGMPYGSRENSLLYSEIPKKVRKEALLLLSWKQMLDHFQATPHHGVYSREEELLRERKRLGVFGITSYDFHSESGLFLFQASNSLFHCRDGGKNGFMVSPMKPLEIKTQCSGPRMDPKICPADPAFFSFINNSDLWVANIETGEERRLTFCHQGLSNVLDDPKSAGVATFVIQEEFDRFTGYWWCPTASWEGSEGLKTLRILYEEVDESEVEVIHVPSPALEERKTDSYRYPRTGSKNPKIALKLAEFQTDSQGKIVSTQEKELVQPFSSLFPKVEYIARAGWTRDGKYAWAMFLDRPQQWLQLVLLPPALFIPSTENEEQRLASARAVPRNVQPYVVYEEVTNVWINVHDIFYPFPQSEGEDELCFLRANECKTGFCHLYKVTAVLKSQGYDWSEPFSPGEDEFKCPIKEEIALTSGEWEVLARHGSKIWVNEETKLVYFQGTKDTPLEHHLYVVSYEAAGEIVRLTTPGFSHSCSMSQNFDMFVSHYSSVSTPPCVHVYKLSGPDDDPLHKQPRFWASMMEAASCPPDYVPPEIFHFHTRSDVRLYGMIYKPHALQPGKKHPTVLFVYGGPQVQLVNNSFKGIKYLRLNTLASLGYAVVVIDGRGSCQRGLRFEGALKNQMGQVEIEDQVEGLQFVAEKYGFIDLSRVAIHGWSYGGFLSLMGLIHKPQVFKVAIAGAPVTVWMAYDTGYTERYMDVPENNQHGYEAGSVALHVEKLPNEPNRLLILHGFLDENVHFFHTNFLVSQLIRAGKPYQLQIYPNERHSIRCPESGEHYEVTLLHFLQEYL
Assay: DPP9 inhibition assay, 10 ng rhDPP9, Tris-HCl/BSA buffer
Type: biochemical
Details: Table 3B

Field request: IC50 | item: Cc1cc(/C=C/c2ccc3nccc(C(=O)NCC(=O)N4CC(F)(F)C[C@H]4C#N)c3c2)ccn1 < 1000 nM

Param item = N#C[C@@H]1CC(F)(F)CN1C(=O)CNC(=O)c1ccncc1/C=C/c1ccc(F)cc1 ; retrieve measured IC50. 1000 to 10000 nM

Fill in: IC50 of C=C(Cc1cnccc1C(=O)NCC(=O)N1CC(F)(F)C[C@H]1C#N)c1ccc(F)cc1 is ___ 1000 to 10000 nM

I would be grateful if you could share the reported IC50 for N#C[C@@H]1CC(F)(F)CN1C(=O)CNC(=O)c1ccncc1CCc1ccc(F)cc1 . 1000 to 10000 nM

If you can, please state the reported IC50 value of CN1CCN(c2ccc(-c3ccc4nccc(C(=O)NCC(=O)N5CC(F)(F)C[C@H]5C#N)c4c3)cn2)CC1 . 1000 to 10000 nM

Quick check: IC50 of N#C[C@@H]1CC(F)(F)CN1C(=O)CNC(=O)c1ccnc2ccc(/C=C/c3ccc(C(F)(F)F)nc3)cc12 ? < 1000 nM

Name the recorded IC50 for C/C(=C\c1cnccc1C(=O)NCC(=O)N1CC(F)(F)C[C@H]1C#N)c1ccc(Cl)cc1 . < 1000 nM

====

Target: circulating FAPα (Homo sapiens, UniProt Q12884)
Construct: from tissue; host or cells: human plasma (EDTA-K2) from healthy volunteers
Sequence (Q12884 24-760 limits assumed): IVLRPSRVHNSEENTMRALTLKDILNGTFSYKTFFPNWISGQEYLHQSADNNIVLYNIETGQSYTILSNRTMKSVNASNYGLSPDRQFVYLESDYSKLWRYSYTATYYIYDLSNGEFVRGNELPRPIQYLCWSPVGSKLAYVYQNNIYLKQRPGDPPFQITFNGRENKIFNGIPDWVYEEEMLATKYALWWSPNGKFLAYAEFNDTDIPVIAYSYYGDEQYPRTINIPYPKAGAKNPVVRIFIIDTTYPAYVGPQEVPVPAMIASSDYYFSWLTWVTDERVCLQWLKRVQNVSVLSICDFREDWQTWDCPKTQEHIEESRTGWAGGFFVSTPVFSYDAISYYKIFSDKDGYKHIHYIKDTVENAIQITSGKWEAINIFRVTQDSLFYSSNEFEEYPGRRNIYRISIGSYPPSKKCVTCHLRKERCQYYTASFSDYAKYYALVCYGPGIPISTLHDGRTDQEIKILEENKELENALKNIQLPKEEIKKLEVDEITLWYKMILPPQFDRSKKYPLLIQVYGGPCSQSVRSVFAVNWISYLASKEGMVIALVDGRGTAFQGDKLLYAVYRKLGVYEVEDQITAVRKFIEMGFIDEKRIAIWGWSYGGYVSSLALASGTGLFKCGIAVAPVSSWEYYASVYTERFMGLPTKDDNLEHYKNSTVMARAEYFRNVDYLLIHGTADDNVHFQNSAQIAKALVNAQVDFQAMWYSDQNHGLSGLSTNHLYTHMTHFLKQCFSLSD
Test: Ex vivo inhibition of circulating FAPα activity from human plasma (PRXS-AMC)
Type: biochemical
Readout Kind: IC50

What value of IC50 has been recorded for this entry: COc1ccc(C(=O)Nc2cnccc2C(=O)NCC(=O)N2CC(F)(F)C[C@H]2C#N)cc1 [Compound 3] < 1000 nM

GET /values?readout=IC50&item= N#C[C@@H]1CC(F)(F)CN1C(=O)CNC(=O)c1ccncc1/C=C/c1ccc(Cl)cc1 [Compound 9] < 1000 nM

====

For each record, write down the corresponding pIC50.
Biological target: recombinant human DPPIV (rhDPPIV) (Homo sapiens)
Construct: purchased R&S system (so in the source)
Assay: DPPIV enzymatic activity assay, H-Gly-Pro-pNA
Type: biochemical
Details: Table 3B
pIC50: −log10 of the molar value.

Fill in the blank: the reported pIC50 of C[C@@H](Nc1cnccc1C(=O)NCC(=O)N1CC(F)(F)C[C@H]1C#N)c1ccc(F)cc1 [Compound 191] is ____. < 5.00

Which measured pIC50 value corresponds to N#C[C@@H]1CC(F)(F)CN1C(=O)CNC(=O)c1ccnc2ccc(/C=C/c3ccc(OC(F)(F)F)cc3)cc12 [Compound 48] ? < 5.00

I am curious: what pIC50 value has been reported for CC(C)(O)c1ccc(-c2ccc3nccc(C(=O)NCC(=O)N4CC(F)(F)C[C@H]4C#N)c3c2)cc1 [Compound 195] ? < 5.00

Any idea what pIC50 was measured for N#C[C@@H]1CC(F)(F)CN1C(=O)CNC(=O)c1ccncc1NC(=O)COc1ccc(Cl)c(F)c1 [Compound 5] ? 5.00 to 6.00

====

Give measured pIC50 for each item. Keep answers brief.
Target: recombinant human DPPIV (rhDPPIV) (Homo sapiens, UniProt P27487)
Construct: purchased R&S system (so in the source)
Assay: DPPIV enzymatic activity assay, H-Gly-Pro-pNA
Assay type: biochemical
Conditions: Table 3B
pIC50: −log10 of the molar value.

# input molecule: N#C[C@@H]1CC(F)(F)CN1C(=O)CNC(=O)c1ccncc1/C=C/c1ccc2cc(Cl)ccc2c1 ; wanted: its pIC50 5.00 to 6.00

Recorded pIC50 of COc1cc(/C=C/c2ccc3nccc(C(=O)NCC(=O)N4CC(F)(F)C[C@H]4C#N)c3c2)ccn1 , please. < 5.00

What value of measured pIC50 is listed for C/C(=C\c1cnccc1C(=O)NCC(=O)N1CC(F)(F)C[C@H]1C#N)c1ccc(F)cc1 ? < 5.00

Quick one: pIC50 of N#C[C@@H]1CC(F)(F)CN1C(=O)CNC(=O)c1ccnc2ccc(/C=C/c3ccc4cc(Cl)ccc4c3)cc12 ? < 5.00

Form field: reported pIC50 of N#C[C@@H]1CC(F)(F)CN1C(=O)CNC(=O)c1ccnc2ccc(-c3ccc(C(F)(F)F)cc3)cc12 < 5.00

# pIC50 lookup, item C=C(Cc1cnccc1C(=O)NCC(=O)N1CC(F)(F)C[C@H]1C#N)c1ccc(F)cc1 < 5.00

GET /values?readout=pIC50&item= COc1ccc(C#Cc2cnccc2C(=O)NCC(=O)N2CC(F)(F)C[C@H]2C#N)cc1 < 5.00

What does the record list as pIC50 for N#C[C@@H]1CC(F)(F)CN1C(=O)CNC(=O)c1ccnc2ccc(/C=C/c3ccnc(C(F)(F)F)c3)cc12 ? 5.00 to 6.00

Please look up its pIC50: N#C[C@@H]1CC(F)(F)CN1C(=O)CNC(=O)c1ccncc1Cc1ccccc1F < 5.00

Bench note: what pIC50 did COc1ccc(/C=C/c2cnccc2C(=O)NCC(=O)N2CC(F)(F)C[C@H]2C#N)cc1 show? < 5.00

# query: pIC50 of entry N#C[C@@H]1CC(F)(F)CN1C(=O)CNC(=O)c1ccncc1CCc1ccc(F)cc1 < 5.00

What value of pIC50 has been recorded for this entry: N#C[C@@H]1CC(F)(F)CN1C(=O)CNC(=O)c1ccncc1/C=C/c1ccc(C(F)(F)F)cc1 5.00 to 6.00

// returns reported pIC50 for input N#C[C@@H]1CC(F)(F)CN1C(=O)CNC(=O)c1ccnc2ccc(/C=C/c3ccc(Cl)cc3)cc12 < 5.00

// lookup pIC50 for N#C[C@@H]1CC(F)(F)CN1C(=O)CNC(=O)c1ccncc1/C=C/c1ccc(Cl)cc1 < 5.00

Using the record for Cc1ccc(/C=C/c2ccc3nccc(C(=O)NCC(=O)N4CC(F)(F)C[C@H]4C#N)c3c2)cn1 , report its pIC50. < 5.00

====

Molecular target: recombinant human DPP9 (rhDPP9) (Homo sapiens, UniProt Q86TI2)
Construct: purchased R&S system / R&D systems (both sic) 5419-SE
Assay: DPP9 inhibition assay, 10 ng rhDPP9, Tris-HCl/BSA buffer
Assay type: biochemical
Conditions: Table 3B
Consider the following compounds; for each one, report its IC50.

I am curious: what IC50 value has been reported for N#C[C@@H]1CC(F)(F)CN1C(=O)CNC(=O)c1ccnc2ccc(/C=C/c3ccc4cc(Cl)ccc4c3)cc12 ? < 1000 nM

Fill blank: measured IC50 of the compound C/C(=C\c1cnccc1C(=O)NCC(=O)N1CC(F)(F)C[C@H]1C#N)c1ccc(F)cc1 is ____. 1000 to 10000 nM

Data request, read-out IC50, for N#C[C@@H]1CC(F)(F)CN1C(=O)CNC(=O)c1ccnc(N2CCN(C(c3ccc(F)cc3)c3ccc(F)cc3)CC2)c1 1000 to 10000 nM

# IC50 lookup, item N#C[C@@H]1CC(F)(F)CN1C(=O)CNC(=O)c1ccncc1/C=C/c1ccc(OC(F)(F)F)cc1 < 1000 nM

For CC(Nc1cnccc1C(=O)NCC(=O)N1CC(F)(F)C[C@H]1C#N)c1ccc(F)cc1 (stereo partly shown) , what is its reported IC50? 1000 to 10000 nM

Could you share which IC50 value was measured for N#C[C@@H]1CC(F)(F)CN1C(=O)CNC(=O)c1ccnc2ccc(/C=C/c3ccc(F)cc3)cc12 ? < 1000 nM

Sample N#C[C@@H]1CC(F)(F)CN1C(=O)CNC(=O)c1ccncc1CCc1ccc(Cl)cc1 — what was its IC50? 1000 to 10000 nM
